Assembled from different publications: IC50 for Lysine-specific demethylase 4C (Homo sapiens).
Measurement label: IC50

> print(dat)
                                    compound                             target.system  measurement.label   measured.result
 1                  CC(C)COc1nc(O)c2ccncc2n1  Lysine-specific demethylase 4C (Homo sapiens)               IC50    100 to 1000 nM
 2  CN1CCN(c2cccc(N(CC3CC3)c3ccc(Oc4nc(O)c5ccncc5n4)cc3)c2)CC1  Lysine-specific demethylase 4C (Homo sapiens)               IC50          ≤ 100 nM
 3  Cn1cnc(-c2nccc3c(O)nc(OCc4ccccc4)nc23)c1  Lysine-specific demethylase 4C (Homo sapiens)               IC50    100 to 1000 nM
 4  CN(c1ccc(C2CC2)cc1)c1ccc2c(c1)CCC[C@H]2CNc1cnccc1C(=O)O  Lysine-specific demethylase 4C (Homo sapiens)               IC50  1000 to 10000 nM
 5  CCOc1ccccc1CCn1cnc(-c2cc(-c3nn[nH]n3)ccn2)c1  Lysine-specific demethylase 4C (Homo sapiens)               IC50  1000 to 10000 nM
 6  CN(C)c1ccc(N(C)c2ccc3c(c2)CCC[C@H]3CNc2cnccc2C(=O)O)cc1  Lysine-specific demethylase 4C (Homo sapiens)               IC50    100 to 1000 nM
 7  Cn1cnc(-c2cc(C(=O)O)ccn2)c1-c1c(F)cccc1OCC1CC1  Lysine-specific demethylase 4C (Homo sapiens)               IC50  1000 to 10000 nM
 8  Clc1ccccc1CCn1cnc(-c2cc(-c3nn[nH]n3)ccn2)c1  Lysine-specific demethylase 4C (Homo sapiens)               IC50  1000 to 10000 nM
 9  O=C(C1CC1)N1CCC[C@H](n2cc(Oc3nc(O)c4ccncc4n3)cn2)C1  Lysine-specific demethylase 4C (Homo sapiens)               IC50          ≤ 100 nM
10   Cc1cc(Cl)ccc1COc1ccnn1-c1cc(C(=O)O)ccn1  Lysine-specific demethylase 4C (Homo sapiens)               IC50    100 to 1000 nM
11  O=C(O)c1ccncc1NC[C@H]1CCOc2cc(Sc3ccc(F)cc3)ccc21  Lysine-specific demethylase 4C (Homo sapiens)               IC50  1000 to 10000 nM
12        Cn1nc(Nc2cnccc2C(=O)O)c2cc(F)ccc21  Lysine-specific demethylase 4C (Homo sapiens)               IC50          < 100 nM
13  Clc1cccc(Cn2cnc(-c3cc(-c4nn[nH]n4)ccn3)c2)c1Cl  Lysine-specific demethylase 4C (Homo sapiens)               IC50  1000 to 10000 nM
14  Cc1ccc2c(c1)C(CNc1cnccc1C(=O)O)CCO2 (stereo not shown)  Lysine-specific demethylase 4C (Homo sapiens)               IC50    100 to 1000 nM
15     Oc1nc(Oc2cnn(CCN3CCOCC3)c2)nc2cnccc12  Lysine-specific demethylase 4C (Homo sapiens)               IC50          ≤ 100 nM
16  Cn1cnc(-c2cc(-c3nn[nH]n3)ccn2)c1-c1ccc(F)cc1OCC1CC1  Lysine-specific demethylase 4C (Homo sapiens)               IC50  1000 to 10000 nM
17  O=C(O)c1ccnc(-n2nccc2OC2CCCc3cc(Cl)ccc32)c1 (stereo not shown)  Lysine-specific demethylase 4C (Homo sapiens)               IC50  1000 to 10000 nM
18        O=C(O)c1ccnc(-n2nccc2OCc2cccnc2)c1  Lysine-specific demethylase 4C (Homo sapiens)               IC50    100 to 1000 nM
19  CC(c1ccccc1)c1ccc2c(c1)OCC[C@H]2CNc1cnccc1C(=O)O (stereo partly shown)  Lysine-specific demethylase 4C (Homo sapiens)               IC50    100 to 1000 nM
20   Cc1cc(Br)ccc1COc1ccnn1-c1cc(C(=O)O)ccn1  Lysine-specific demethylase 4C (Homo sapiens)               IC50    100 to 1000 nM
21  O=C(O)c1ccnc(-n2nccc2OCc2ccc(C3CC3)cc2F)c1  Lysine-specific demethylase 4C (Homo sapiens)               IC50  1000 to 10000 nM
22  CC(C)Oc1cc(Cl)ccc1COc1ccnn1-c1cc(C(=O)O)ccn1  Lysine-specific demethylase 4C (Homo sapiens)               IC50  1000 to 10000 nM
23  O=S(=O)(C1CC1)N1CCC[C@H](n2cc(Oc3nc(O)c4ccncc4n3)cn2)C1  Lysine-specific demethylase 4C (Homo sapiens)               IC50          ≤ 100 nM
24        Cn1ccc2cc(Oc3nc(O)c4ccncc4n3)ccc21  Lysine-specific demethylase 4C (Homo sapiens)               IC50    100 to 1000 nM
25  CC(C)COc1ccccc1Cn1cnc(-c2cc(-c3nn[nH]n3)ccn2)c1  Lysine-specific demethylase 4C (Homo sapiens)               IC50  1000 to 10000 nM
26  CCCc1ccc(N(C)c2ccc(Oc3nc(O)c4ccncc4n3)cc2C)cc1  Lysine-specific demethylase 4C (Homo sapiens)               IC50    100 to 1000 nM
27  N#Cc1cccc2c1CN(CCn1cnc(-c3cc(C(=O)O)ccn3)c1)C2  Lysine-specific demethylase 4C (Homo sapiens)               IC50          ≤ 100 nM
28        O=C(NCCOc1nc(O)c2ccncc2n1)c1ccccc1  Lysine-specific demethylase 4C (Homo sapiens)               IC50    100 to 1000 nM
29  COc1ccc(F)cc1-c1ccc2c(c1)OCC[C@H]2CNc1cnccc1C(=O)O  Lysine-specific demethylase 4C (Homo sapiens)               IC50    100 to 1000 nM
30   O=C(O)c1ccnc(-n2nccc2OCc2cccc3c2OCC3)c1  Lysine-specific demethylase 4C (Homo sapiens)               IC50    100 to 1000 nM
31  CN(c1ccc(C2=CCOCC2)cc1)c1ccc2c(c1)OCC[C@H]2CNc1cnccc1C(=O)O  Lysine-specific demethylase 4C (Homo sapiens)               IC50    100 to 1000 nM
32  Cn1cnc(-c2nccc3c(O)nc(OCc4cccc(F)c4)nc23)c1  Lysine-specific demethylase 4C (Homo sapiens)               IC50          ≤ 100 nM
33  Cc1ccc(F)cc1-c1ccc2c(c1)OCC[C@H]2CNc1cnccc1C(=O)O  Lysine-specific demethylase 4C (Homo sapiens)               IC50    100 to 1000 nM
34  O=C(O)c1ccnc(-n2nccc2-c2ccc3cn[nH]c3c2)c1  Lysine-specific demethylase 4C (Homo sapiens)               IC50  1000 to 10000 nM
35  CCc1ccc(N(C)c2ccc(Oc3nc(O)c4ccncc4n3)cc2)nc1  Lysine-specific demethylase 4C (Homo sapiens)               IC50    100 to 1000 nM
36      O=C(O)c1ccncc1NCC12CC3CC(CC(C3)C1)C2  Lysine-specific demethylase 4C (Homo sapiens)               IC50          ≤ 100 nM
37  CN(c1ccc(C#N)cc1)c1ccc2c(c1)OCC[C@H]2CNc1cnccc1C(=O)O  Lysine-specific demethylase 4C (Homo sapiens)               IC50    100 to 1000 nM
